# test: Plasma concentration in CD-1 mouse at 0.3 mg/kg, iv
# Type: ADME, organism-based
# cond: in vivo
measured.attribute: concentration (nM)

{"columns": ["smiles.input", "measured.attribute", "recorded.value"],
 "data": [
  ["O=C1[C@H](N2CCC(c3ccc(O)cc3)CC2)CCN1Cc1ccc(F)cc1", "concentration", 70]
]}

###

Quick list: fraction unbound per entry.
# test: Fraction unbound in human plasma
# Assay type: ADME, cell-free

{"columns": ["smiles.input", "fraction unbound"],
 "data": [
  ["Cc1ccc(CN2CC[C@@H](N3CC[C@@H](c4ccc(O)cc4)[C@H](F)C3)C2=O)cc1", 0.06],
  ["O=C1[C@H](N2CCC(c3ccc(O)cc3)CC2)CCN1Cc1ccc(F)cc1", 0.1]
]}

###

# tested.target: Cytochrome P450 2C19 (Homo sapiens)
# Sequence (P33261 whole entry): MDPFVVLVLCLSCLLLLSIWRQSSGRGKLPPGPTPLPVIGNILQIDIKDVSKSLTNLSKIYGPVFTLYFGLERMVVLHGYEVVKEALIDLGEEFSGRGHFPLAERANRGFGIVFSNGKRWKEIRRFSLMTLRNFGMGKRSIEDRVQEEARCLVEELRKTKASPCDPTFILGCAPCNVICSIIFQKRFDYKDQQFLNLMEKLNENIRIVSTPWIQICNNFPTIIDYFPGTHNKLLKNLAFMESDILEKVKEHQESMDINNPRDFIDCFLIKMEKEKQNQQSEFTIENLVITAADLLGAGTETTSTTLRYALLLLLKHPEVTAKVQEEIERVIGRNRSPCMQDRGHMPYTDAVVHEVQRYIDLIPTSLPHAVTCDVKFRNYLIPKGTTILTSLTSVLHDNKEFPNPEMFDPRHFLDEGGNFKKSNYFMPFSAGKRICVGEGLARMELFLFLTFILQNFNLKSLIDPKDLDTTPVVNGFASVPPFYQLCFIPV
# test: Inhibition of CYP2C19 in human liver microsomes
# Format: ADME

{"columns": ["smiles.input", "IC50"],
 "data": [
  ["Cc1ccc(CN2CC[C@@H](N3CC[C@@H](c4ccc(O)cc4)[C@H](F)C3)C2=O)cc1", "> 18 µM"]
]}

###

Quick list: pKa per entry.
# test: Dissociation constant, pKa of the compound by spectrophotometric method
# Format: physicochemical

{"columns": ["smiles.input", "pKa"],
 "data": [
  ["Cc1ccc(CN2CC[C@@H](N3CC[C@@H](c4ccc(O)cc4)[C@H](F)C3)C2=O)cc1", 4.4],
  ["O=C1[C@H](N2CCC(c3ccc(O)cc3)CC2)CCN1Cc1ccc(F)cc1", 6.8]
]}

###

# tested.target: Glutamate receptor ionotropic, NMDA 2B (Rattus norvegicus)
# Sequence (Q00960 whole entry): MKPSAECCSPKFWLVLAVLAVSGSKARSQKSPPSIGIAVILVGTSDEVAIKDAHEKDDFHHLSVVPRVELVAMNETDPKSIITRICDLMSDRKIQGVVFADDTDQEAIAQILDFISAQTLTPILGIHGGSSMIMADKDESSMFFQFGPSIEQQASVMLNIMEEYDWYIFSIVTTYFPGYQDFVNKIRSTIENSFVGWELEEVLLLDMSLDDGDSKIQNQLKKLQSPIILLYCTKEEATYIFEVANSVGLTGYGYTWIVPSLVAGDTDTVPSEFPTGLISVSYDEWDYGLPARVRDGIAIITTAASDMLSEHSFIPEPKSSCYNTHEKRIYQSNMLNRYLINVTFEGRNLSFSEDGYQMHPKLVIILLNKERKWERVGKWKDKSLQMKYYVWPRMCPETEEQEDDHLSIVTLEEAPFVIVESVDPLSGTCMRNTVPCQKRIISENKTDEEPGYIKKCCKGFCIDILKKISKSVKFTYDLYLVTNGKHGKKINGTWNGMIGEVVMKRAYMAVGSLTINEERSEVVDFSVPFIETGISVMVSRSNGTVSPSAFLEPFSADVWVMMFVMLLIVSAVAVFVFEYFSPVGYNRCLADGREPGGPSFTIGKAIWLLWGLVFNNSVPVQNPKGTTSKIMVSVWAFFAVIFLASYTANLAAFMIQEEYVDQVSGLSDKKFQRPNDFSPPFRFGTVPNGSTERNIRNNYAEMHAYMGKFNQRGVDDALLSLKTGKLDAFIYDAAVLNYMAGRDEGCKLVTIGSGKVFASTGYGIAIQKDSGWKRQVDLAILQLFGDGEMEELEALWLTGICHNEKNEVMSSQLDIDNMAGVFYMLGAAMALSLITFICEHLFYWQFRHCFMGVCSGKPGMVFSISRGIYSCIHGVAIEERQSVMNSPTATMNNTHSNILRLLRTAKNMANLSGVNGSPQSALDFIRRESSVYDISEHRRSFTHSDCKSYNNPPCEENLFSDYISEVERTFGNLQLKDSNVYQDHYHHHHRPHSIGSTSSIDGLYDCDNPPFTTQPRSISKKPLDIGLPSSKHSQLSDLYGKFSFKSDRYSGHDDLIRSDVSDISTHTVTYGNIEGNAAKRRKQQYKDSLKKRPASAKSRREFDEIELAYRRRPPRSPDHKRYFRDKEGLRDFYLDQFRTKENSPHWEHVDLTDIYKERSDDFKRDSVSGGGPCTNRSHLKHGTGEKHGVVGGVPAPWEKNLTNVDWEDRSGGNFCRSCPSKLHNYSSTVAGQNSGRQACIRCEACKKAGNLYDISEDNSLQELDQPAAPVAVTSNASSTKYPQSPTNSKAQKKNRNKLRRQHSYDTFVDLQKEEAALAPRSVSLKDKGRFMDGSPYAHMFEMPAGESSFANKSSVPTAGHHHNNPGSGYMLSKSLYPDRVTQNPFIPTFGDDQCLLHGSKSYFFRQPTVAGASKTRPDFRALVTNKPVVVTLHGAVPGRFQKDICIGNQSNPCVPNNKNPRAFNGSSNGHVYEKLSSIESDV
pKi: −log10 of the molar value.

{"columns": ["smiles.input", "tested.target", "pKi"],
 "data": [
  ["O=C1[C@H](N2CC[C@@H](c3ccc(O)cc3)[C@H](F)C2)CCN1Cc1ccc(F)cc1", "Glutamate receptor ionotropic, NMDA 2B (Rattus norvegicus)", 7.96],
  ["O=C1[C@H](N2CCC(c3ccc(O)cc3)CC2)CCN1Cc1ccc(F)cc1", "Glutamate receptor ionotropic, NMDA 2B (Rattus norvegicus)", 8.85]
]}

###

# test: AUClast in CD-1 mouse at 1 mg/kg, iv administered as 5 mins infusion
# Type: ADME, organism-based
# Set-up: dose 1 mg/kg, time 0 - last, route intravenous
# cond: in vivo
measured.attribute: AUC(0-t) at 5 min

{"columns": ["smiles.input", "recorded.value"],
 "data": [
  ["Cc1ccc(CN2CC[C@@H](N3CC[C@@H](c4ccc(O)cc4)[C@H](F)C3)C2=O)cc1", "0.53 µM·h"]
]}

###

# tested.target: Glutamate receptor ionotropic, NMDA 2B (Homo sapiens, UniProt Q13224)
# Sequence (Q13224 whole entry): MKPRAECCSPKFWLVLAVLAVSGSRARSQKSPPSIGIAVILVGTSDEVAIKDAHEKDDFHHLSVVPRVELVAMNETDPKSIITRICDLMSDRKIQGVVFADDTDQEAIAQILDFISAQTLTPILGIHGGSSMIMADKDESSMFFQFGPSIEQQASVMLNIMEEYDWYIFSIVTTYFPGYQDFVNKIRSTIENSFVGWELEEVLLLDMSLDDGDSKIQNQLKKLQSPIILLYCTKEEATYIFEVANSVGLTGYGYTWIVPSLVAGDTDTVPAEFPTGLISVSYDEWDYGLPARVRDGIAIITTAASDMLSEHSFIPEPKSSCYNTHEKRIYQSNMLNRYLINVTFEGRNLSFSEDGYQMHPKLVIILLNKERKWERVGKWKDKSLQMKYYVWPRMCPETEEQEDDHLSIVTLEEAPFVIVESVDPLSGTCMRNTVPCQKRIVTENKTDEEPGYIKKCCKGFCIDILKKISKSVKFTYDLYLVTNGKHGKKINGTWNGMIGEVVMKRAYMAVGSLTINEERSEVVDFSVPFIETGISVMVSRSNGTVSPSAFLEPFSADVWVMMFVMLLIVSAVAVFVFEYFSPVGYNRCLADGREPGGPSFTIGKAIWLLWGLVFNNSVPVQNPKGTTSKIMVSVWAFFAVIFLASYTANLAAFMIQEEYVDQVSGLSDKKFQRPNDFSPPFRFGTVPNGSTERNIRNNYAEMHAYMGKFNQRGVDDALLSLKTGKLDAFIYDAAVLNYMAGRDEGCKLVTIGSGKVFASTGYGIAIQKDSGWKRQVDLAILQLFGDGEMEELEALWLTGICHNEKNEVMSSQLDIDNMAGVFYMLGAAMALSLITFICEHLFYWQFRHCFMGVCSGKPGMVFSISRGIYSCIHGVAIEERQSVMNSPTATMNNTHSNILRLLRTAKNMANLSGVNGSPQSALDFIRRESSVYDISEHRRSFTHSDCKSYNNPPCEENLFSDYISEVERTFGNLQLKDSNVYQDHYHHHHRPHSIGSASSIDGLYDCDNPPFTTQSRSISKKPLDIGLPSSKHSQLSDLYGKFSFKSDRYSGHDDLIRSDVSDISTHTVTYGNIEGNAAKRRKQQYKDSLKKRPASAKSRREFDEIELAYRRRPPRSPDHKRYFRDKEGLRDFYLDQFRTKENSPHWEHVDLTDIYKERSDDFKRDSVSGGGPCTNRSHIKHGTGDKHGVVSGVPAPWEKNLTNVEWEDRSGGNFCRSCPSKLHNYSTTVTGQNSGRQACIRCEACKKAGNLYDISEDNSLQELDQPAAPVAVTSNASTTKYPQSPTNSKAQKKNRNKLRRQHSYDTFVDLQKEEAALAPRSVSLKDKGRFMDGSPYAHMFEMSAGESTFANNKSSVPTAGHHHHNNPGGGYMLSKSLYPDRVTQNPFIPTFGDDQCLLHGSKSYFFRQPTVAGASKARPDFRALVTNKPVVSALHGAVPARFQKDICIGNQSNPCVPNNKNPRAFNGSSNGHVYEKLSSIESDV
pKi: −log10 of the molar value.

{"columns": ["smiles.input", "pKi"],
 "data": [
  ["Cc1ccc(CN2CC[C@@H](N3CC[C@@H](c4ccc(O)cc4)[C@H](F)C3)C2=O)cc1", 8.20]
]}

###

# Tested on: Rhesus monkey
# test: Cmax in monkey at 36 mg/kg, iv assessed as BMS-986169 level in plasma
# Type: ADME, organism-based, Macaca mulatta
# Design: dose 36 mg/kg, route intravenous
# cond: in vivo

{"columns": ["smiles.input", "Cmax [µM]"],
 "data": [
  ["Cc1ccc(CN2CC[C@@H](N3CC[C@@H](c4ccc(OP(=O)(O)O)cc4)[C@H](F)C3)C2=O)cc1", 19]
]}

###

# test: Plasma concentration in CD-1 mouse at 0.1 to 1 mg/kg, iv
# Assay type: ADME, organism-based
# cond: in vivo
measured.attribute: log10(concentration) (log10 of the value in nM)

{"columns": ["molecule", "recorded.value"],
 "data": [
  ["Cc1ccc(CN2CC[C@@H](N3CCC(c4ccc(O)cc4)C(F)(F)C3)C2=O)cc1 (some centres not stated)", 3.40],
  ["Cc1ccc(CN2CC[C@@H](N3CC[C@H](c4ccc(O)cc4)[C@@H](F)C3)C2=O)cc1", 2.85],
  ["Cc1ccc(CN2CC[C@@H](N3CCC(c4ccc(O)cc4)CC3)C2=O)cc1", 2.34],
  ["O=C1[C@H](N2CCC(c3ccc(O)cc3)CC2)CCN1Cc1ccc(F)cc1", 2.18],
  ["O=C1[C@H](N2CC[C@@H](c3ccc(O)cc3)[C@H](F)C2)CCN1Cc1ccc(F)cc1", 3.08],
  ["Cc1ccc(CN2CC[C@@H](N3CC[C@H](c4ccc(O)cc4)[C@H](F)C3)C2=O)cc1", 2.77]
]}

###

# test: Ratio of drug uptake in CD-1 mouse brain to plasma at 0.1 to 1 mg/kg, iv
# Format: ADME, organism-based
# cond: read-out: BPR

{"columns": ["smiles.input", "Kp"],
 "data": [
  ["Cc1ccc(CN2CC[C@@H](N3CC[C@@H](c4ccc(O)cc4)[C@H](F)C3)C2=O)cc1", 2.8]
]}

###

# test: Volume of distribution at steady state in Sprague-Dawley rat at 1 mg/kg, iv administered as 5 mins infusion
# Format: ADME, organism-based
# cond: in vivo, read-out: Vdss
measured.attribute: Vd (L/kg)

{"columns": ["smiles.input", "recorded.value"],
 "data": [
  ["Cc1ccc(CN2CC[C@@H](N3CC[C@@H](c4ccc(O)cc4)[C@H](F)C3)C2=O)cc1", 2.3]
]}

###

# test: Clearance in Sprague-Dawley rat at 1 mg/kg, iv administered as 5 mins infusion
# Format: ADME, organism-based
# cond: in vivo

{"columns": ["smiles.input", "unit.annotation", "clearance"],
 "data": [
  ["Cc1ccc(CN2CC[C@@H](N3CC[C@@H](c4ccc(O)cc4)[C@H](F)C3)C2=O)cc1", "mL/min/kg", 54]
]}

Origin of values: ChEMBL document CHEMBL4145597
